# Tested on: HCT-116
# Experiment description: Cytotoxicity against human HCT-116 cells assessed as reduction in cell viability incubated for 48 hrs by resazurin reagent based fluorescence assay
# Type: functional
# Experimental setup: HCT-116, 48 h
# reported IC50; entries follow

Worked examples, 5 compounds total:
input_smiles=COc1ccc(/C=C/c2cc(/C=C/c3ccc(OC)c(OC)c3)nc(OCCCCCBr)n2)cc1OC assay_result="> 20 µM"
input_smiles=COc1ccc(/C=C/c2cc(/C=C/c3ccc(OC)cc3)nc(OCCCCCBr)n2)cc1 assay_result="> 20 µM"
input_smiles=COc1cc(/C=C/c2cc(/C=C/c3cc(OC)c(OC)c(OC)c3)nc(OCCCCSC(=N)N)n2)cc(OC)c1OC assay_result="3.77 µM"
input_smiles=COc1cc(/C=C/c2cc(/C=C/c3cc(OC)c(OC)c(OC)c3)nc(OCCCCCCBr)n2)cc(OC)c1OC assay_result="> 20 µM"
input_smiles=COc1ccc(/C=C/c2cc(/C=C/c3ccc(OC)cc3)nc(OCCCCSC(N(C)C)=[N+](C)C)n2)cc1.[Br-] assay_result="3 µM"

Pending compound:
Fill blank: measured IC50 of the compound N=C(N)SCCCCOc1nc(/C=C/c2ccccc2)cc(/C=C/c2ccccc2)n1 is ____.
1.87 µM

* * *

# Tested on: CHO
# Experiment description: Cytotoxicity against CHO cells overexpressing 3-O-sulfotransferase 1 assessed as reduction in cell viability at 10 uM incubated for 48 hrs by resazurin reagent based fluorescence assay
# Design: species or system Cricetulus griseus
# Experimental setup: chinese hamster
Reported endpoint: Activity

input_smiles=COc1ccc(/C=C/c2cc(/C=C/c3ccc(OC)cc3)nc(OCCCCBr)n2)cc1 reported_endpoint=Activity assay_result=Non-Toxic
input_smiles=Br.COc1ccc(/C=C/c2cc(/C=C/c3ccc(OC)cc3)nc(OCCCCSC(=N)N)n2)cc1 reported_endpoint=Activity assay_result=Toxic
input_smiles=COc1ccc(/C=C/c2cc(/C=C/c3ccc(OC)cc3)nc(OCCCCSC(N(C)C)=[N+](C)C)n2)cc1.[Br-] reported_endpoint=Activity assay_result=Non-Toxic
input_smiles=COc1ccc(/C=C/c2cc(/C=C/c3ccc(OC)c(OC)c3)nc(OCCCCBr)n2)cc1OC reported_endpoint=Activity assay_result=Toxic

Fill blank: measured Activity of the compound COc1ccc(/C=C/c2cc(/C=C/c3ccc(OC)c(OC)c3)nc(OCCCCSC(N(C)C)=[N+](C)C)n2)cc1OC.[Br-] is ____.
Non-Toxic

Fill blank: measured Activity of the compound Br.COc1ccc(/C=C/c2cc(/C=C/c3ccc(OC)c(OC)c3)nc(OCCCCSC(=N)N)n2)cc1OC is ____.
Toxic

* * *

# Tested on: CHO
# Experiment description: Cytotoxicity against CHO cells overexpressing 3-O-sulfotransferase 3 assessed as reduction in cell viability at 10 uM incubated for 48 hrs by resazurin reagent based fluorescence assay
# Set-up: species or system Cricetulus griseus
# Experimental setup: chinese hamster
Reported endpoint: Activity

Worked examples, 5 compounds total:
input_smiles=COc1ccc(/C=C/c2cc(/C=C/c3ccc(OC)c(OC)c3)nc(OCCCCSC(N(C)C)=[N+](C)C)n2)cc1OC.[Br-] experimental_system=CHO reported_endpoint=Activity assay_result=Non-Toxic
input_smiles=COc1ccc(/C=C/c2cc(/C=C/c3ccc(OC)c(OC)c3)nc(OCCCCBr)n2)cc1OC experimental_system=CHO reported_endpoint=Activity assay_result=Toxic
input_smiles=Br.COc1ccc(/C=C/c2cc(/C=C/c3ccc(OC)c(OC)c3)nc(OCCCCSC(=N)N)n2)cc1OC experimental_system=CHO reported_endpoint=Activity assay_result=Toxic
input_smiles=COc1ccc(/C=C/c2cc(/C=C/c3ccc(OC)cc3)nc(OCCCCBr)n2)cc1 experimental_system=CHO reported_endpoint=Activity assay_result=Non-Toxic
input_smiles=Br.COc1ccc(/C=C/c2cc(/C=C/c3ccc(OC)cc3)nc(OCCCCSC(=N)N)n2)cc1 experimental_system=CHO reported_endpoint=Activity assay_result=Toxic

Pending compound:
Fill blank: measured Activity of the compound COc1ccc(/C=C/c2cc(/C=C/c3ccc(OC)cc3)nc(OCCCCSC(N(C)C)=[N+](C)C)n2)cc1.[Br-] is ____.
Non-Toxic
